This section presents molecules with their documented inhibition at 20 µM values.
- System: NCI-H2405
- measurement.description: Cell panel screen (CellTiter-Glo)
- Type: cell-based, human
- experimental.context: Homo sapiens; NCI-H2405 (Lung), 20 micromolar, 72 hrs; read-out: Percent Inhibition
measurement.name: inhibition at 20 µM

1) CC(C)=CCC[C@@]1(C)C=Cc2c(O)c3c(c(CCC(C)(C)O)c2O1)O[C@]12C(=C[C@@H]4C[C@H]1C(C)(C)O[C@@]2(C/C=C(/C)C(=O)O)C4=O)C3=O [GB39, 33-hydroxyepigambogic acid]: 100%
2) CC(C)=CCC/C(C)=C/Cc1c(O)c(CC=C(C)C)c2c(c1O)C(=O)C1=C[C@@H]3C[C@H]4C(C)(C)O[C@@](C/C=C(\C)C=O)(C3=O)[C@@]14O2 [GB49]: 99%
3) CC(C)=CCC/C(C)=C/Cc1c(O)c(CC=C(C)C)c2c(c1O)C(=O)C1=C[C@@H]3C[C@H]4C(C)(C)O[C@@](C/C=C(\C)C(=O)O)(C3=O)[C@@]14O2 [GB63]: 99%
4) CC(C)=CCc1c(O)cc2oc3c(CC=C(C)C)c(O)c(O)c(CC=C(C)C)c3c(=O)c2c1O [bn-1, Garcinone E]: 93%
5) CC(C)=CCC[C@@]1(C)C=Cc2c(O)c3c(c(C/C=C(\C)CO)c2O1)O[C@]12C(=C[C@@H]4C[C@H]1C(C)(C)O[C@@]2(C/C=C(/C)C(=O)O)C4=O)C3=O [GB40, 35-hydroxyepigambogic acid]: 99%

###

This section presents molecules with their documented Percent Inhibition values.
- Test system: C8166
- measurement.description: Cell panel screen (CellTiter-Glo)
- Format: cell-based, human
- experimental.context: C8166 (Leukemia), 20 micromolar, 72 hrs
measurement.name: Percent Inhibition

1. CC1(C)C=Cc2c(cc(O)c3c(=O)c4ccc(O)c(O)c4oc23)O1 [gl-18]: 92%
2. CC(C)=CCc1c(O)cc(O)c2c1O[C@]13C(=C[C@@H]4C[C@H]1C(C)(C)O[C@@]3(CC=C(C)C)C4=O)C2=O [GB35]: 99%
3. CC(C)=CCc1c(O)c(O)cc2oc3cc(O)cc(O)c3c(=O)c12 [bn-10]: 23%
4. CC1(C)C=Cc2c(cc(O)c3c(=O)c4cc5c(c(O)c4oc23)OC(C)(C)C=C5)O1 [Go-16]: 13%
5. COc1c(O)c(O)c2c(=O)c3c(CC=C(C)C)c(CC=C(C)C)c(O)c(O)c3oc2c1CC=C(C)C [Compound N-7]: 10%
6. CC(C)=CCc1c(O)cc2oc3cc(O)c(O)c(CCC(C)(C)O)c3c(=O)c2c1O [bn-16, Garcinone C]: 88%
7. CC(C)=CCC/C(C)=C/Cc1c(O)c(CC=C(C)C)c2c(c1O)C(=O)C1=C[C@@H]3C[C@H]4C(C)(C)O[C@@](C/C=C(/C)C(=O)O)(C3=O)[C@@]14O2 [GB16]: 100%
8. O=c1c2cc(O)c(O)cc2oc2cc(O)cc(O)c12 [Ge-17]: 62%

###

- Test system: Panc 03.27
- measurement.description: Cell panel screen (CellTiter-Glo)
- Format: cell-based, human
- experimental.context: Panc 03.27 (Pancreas), 20 micromolar, 72 hrs
This section presents molecules with their documented Percent Inhibition values.
measurement.name: Percent Inhibition

1) COc1ccc2c(=O)c3c(O)cc(O)cc3oc2c1OC: 4%
2) COc1cc(O)c2c(=O)c3c(CC=C(C)C)cc(O)c(O)c3oc2c1CC=C(C)CCC=C(C)C: 92%
3) CCOC(=O)C1OC(Oc2cc(O)c3c(c2)OC(c2ccc(O)c(O)c2)CC3=O)C(O)C(O)C1O (stereo not drawn): 2%

###

- Tested on: J82
- measurement.description: Cell panel screen (CellTiter-Glo)
- Type: cell-based, human
- experimental.context: J82 (Urinary bladder), 20 micromolar, 72 hrs
This section presents compounds with their documented Percent Inhibition values.
measurement.name: Percent Inhibition (%)

1. CC1(C)C=Cc2cc3c(=O)c4c(O)cc(O)cc4oc3c(O)c2O1 [Go-11]: 52
2. CC(C)=CCC[C@@]1(C)C=Cc2c(O)c3c(c(CC=C(C)C)c2O1)O[C@]12C(=C[C@@H]4C[C@H]1C(C)(C)O[C@@]2(C/C=C(/C)C(=O)O)C4=O)C3=O [GB11]: 98
3. CC(C)=CCc1c(O)cc2oc3cc(O)c(O)c(CC=C(C)C)c3c(=O)c2c1O [Ge9]: 97
4. C=C(C)C(O)Cc1c(O)cc2oc3cc(O)c(O)c(CC=C(C)C)c3c(=O)c2c1O (centres unmarked) [bn-17, Bannaxanthone B]: 52
5. COc1c(O)c(O)c2c(=O)c3c(CC=C(C)C)c(CC=C(C)C)c(O)c(O)c3oc2c1CC=C(C)C [Compound N-7]: 17
6. COc1c(CC=C(C)C)cc2c(=O)c3c(O)cc(O)cc3oc2c1O [gl-16]: 50
7. COc1cc(O)c2c(=O)c3ccc(O)c(O)c3oc2c1CC=C(C)C [gl-17]: 88
8. CC(C)=CCCC1(C)C=Cc2c(O)c3c(c(CC=C(C)C)c2O1)OC12C(=CC4CC1C(C)(C)OC2(CC=C(C)C(=O)O)C4=O)C3=O (mixture of isomers) [GB14]: 97

###

- Tested on: A704
- measurement.description: Cell panel screen (CellTiter-Glo)
- Assay type: cell-based, human
- experimental.context: A704 (Kidney), 20 micromolar, 72 hrs
- Description: All cells were obtained from the cell bank of the American Type Culture Collection (ATCC) and cultured in the supplier's recommended media supplemented with 10% FBS. The cell panel screen was measured using the CellTiter-Glo assay (Promega, Madison, WI) following a standard protocol. […] The plate was then read on a FlexStation 3 microplate luminometer (Molecular Devices, USA) to monitor the luminescence signal generated by the luciferase-catalyzed reaction of luciferin and ATP. […]
This section presents compounds with their documented Percent Inhibition values.
measurement.name: Percent Inhibition (%)

1) COc1c(O)c(O)c2c(=O)c3c(CC=C(C)C)c(CC=C(C)C)c(O)c(O)c3oc2c1CC=C(C)C: 1
2) CC(C)=CCC/C(C)=C/Cc1c(O)c(CC=C(C)C)c2c(c1O)C(=O)C1=C[C@@H]3C[C@H]4C(C)(C)O[C@@](C/C=C(/C)C(=O)O)(C3=O)[C@@]14O2: 99
3) CC(C)=CCc1c(O)cc2oc3cc(O)c(O)c(CCC(C)(C)O)c3c(=O)c2c1O: 62

###

This section presents compounds with their documented Percent Inhibition values.
- System: HGC-27
- measurement.description: Cell panel screen (CellTiter-Glo)
- Type: cell-based, human
- experimental.context: HGC-27 (Stomach), 20 micromolar, 72 hrs
measurement.name: Percent Inhibition (%)

1) CC(C)=CCc1c(O)c(O)cc2oc3cc(O)cc(O)c3c(=O)c12: 30
2) CC(C)=CCc1c2c(c(O)c3c(=O)c4c(CC=C(C)C)c(O)c(O)cc4oc13)C=CC(C)(C)O2: 86
3) COc1cc(O)c2c(=O)c3cc(CC=C(C)C)c(O)c(O)c3oc2c1CC=C(C)C: 98
4) CC(C)=CCCC1(C)C=Cc2c(O)c3c(c(CC=C(C)C)c2O1)OC12C(=CC4CC1C(C)(C)OC2(CC=C(C)C(=O)O)C4=O)C3=O (mixture of isomers) [GB14]: 98
5) CC(C)=CCCC1(C)C=Cc2c(O)c3c(c(CC=C(C)C)c2O1)OC12C(=CC4CC1C(C)(C)OC2(CC=C(C)C(=O)O)C4=O)C3=O (mixture of isomers) [GB8]: 100
6) COc1c(CC=C(C)C)c(O)c2c(=O)c3ccc(O)c(O)c3oc2c1CC=C(C)C: 97
7) COc1cc(O)c2c(=O)c3cc4c(c(O)c3oc2c1CC=C(C)C)OC(C)(C)C=C4: 34

###

This section presents compounds with their documented Percent Inhibition values.
- Test system: NCI-H1770
- measurement.description: Cell panel screen (CellTiter-Glo)
- Assay type: cell-based, human
- experimental.context: NCI-H1770 (Lung), 20 micromolar, 72 hrs
measurement.name: Percent Inhibition

1. O=c1c2cc(O)ccc2oc2cccc(O)c12 [Gof3]: 17%
2. CC(C)=CCc1c(O)cc2oc3cc(O)c(O)c(CCC(C)(C)O)c3c(=O)c2c1O: 87%
3. CC1(C)C=Cc2c(cc(O)c3c(=O)c4cc5c(c(O)c4oc23)OC(C)(C)C=C5)O1: 25%
4. COc1cc(O)c2c(=O)c3c(CC=C(C)C)cc(O)c(O)c3oc2c1CC=C(C)CCC=C(C)C: 98%
5. CC(C)=CCc1c(O)cc2oc3c(c(=O)c2c1O)C(CC=C(C)C)(CC=C(C)C)C(=O)C(O)=C3: 90%
6. COc1c(CC=C(C)C)cc2c(=O)c3c(O)cc(O)cc3oc2c1O: 21%
7. O=c1c2cc(O)ccc2oc2cccc(O)c12 [gl-20]: -4%
8. O=C1CC(c2ccc(O)c(O)c2)Oc2cc(OC3OC(C(=O)O)C(O)C(O)C3O)cc(O)c21 (centres unmarked): -4%
9. CC(C)=CCc1c2c(c3oc4c(O)c(O)ccc4c(=O)c3c1O)C=CC(C)(C)O2: 5%
10. CC(C)=CCc1c(O)cc2oc3ccc(O)cc3c(=O)c2c1O: 13%
11. CC(C)=CCc1c2c(c(O)c3c1OC14C(=CC5CC1C(C)(C)OC4(CC=C(C)C(=O)O)C5=O)C3=O)C=CC(C)(C)O2 (centres unmarked): 99%
12. C=C(C)C(O)Cc1c(O)cc2oc3cc(O)c(O)c(CC=C(C)C)c3c(=O)c2c1O (centres unmarked): 12%
13. COc1c(O)c(O)c2c(=O)c3c(CC=C(C)C)c(CC=C(C)C)c(O)c(O)c3oc2c1CC=C(C)C: -6%
14. COC(=O)C1OC(Oc2cc(O)c3c(c2)OC(c2ccc(O)c(O)c2)CC3=O)C(O)C(O)C1O (centres unmarked): -6%
15. CC(C)=CCc1c(O)cc(O)c2c1O[C@]13C(=C[C@@H]4C[C@H]1C(C)(C)O[C@@]3(CC=C(C)C)C4=O)C2=O: 100%
16. CC1(C)C=Cc2c(cc(O)c3c(=O)c4ccc(O)c(O)c4oc23)O1: 89%
17. CC(C)=CCc1c2c(c(O)c3c1O[C@]14C(=C[C@@H]5C[C@H]1C(C)(C)O[C@@]4(C/C=C(\C)CO)C5=O)C3=O)C=CC(C)(C)O2: 99%

Source listed as paper PMC4450297.
